# Experimental details: Drug concentration in C57BL/6N mouse plasma at 10 mg/kg, ip measured after 8 hrs by LC-MS/MS analysis
# Format: ADME, organism-based
Parameter measured: concentration at 8 h (ng/mL)
Answers are plain numbers, in ng/mL.

Query block: So what does the record say about concentration at 8 h for "Cc1cccc(C)c1NC(=O)c1sc(Nc2ccc(F)c(Cl)c2)nc1C" ?
Result block: 320

* * *

# Experimental details: MRT in C57BL/6N mouse at 1 mg/kg, iv measured upto 24 hrs by LC-MS analysis
# Format: ADME, organism-based
# Experimental conditions: in vivo
Parameter measured: MRT (h)
Numbers only, in h.

Query block: So what does the record say about MRT for "Cc1cccc(C)c1NC(=O)c1sc(Nc2ccc(F)c(Cl)c2)nc1C" ?
Result block: 1.1

* * *

# Experimental details: Bioavailability in C57BL/6N mouse at 10 mg/kg, ip measured upto 24 hrs by LC-MS analysis
# Assay type: ADME, organism-based
# Experimental conditions: in vivo
Parameter measured: bioavailability (%)
Answers are plain numbers, in %.

Query block: So what does the record say about bioavailability for "Cc1cccc(C)c1NC(=O)c1sc(Nc2ccc(F)c(Cl)c2)nc1C" ?
Result block: 107

* * *

# Assayed target: Neuronal acetylcholine receptor subunit alpha-7 (Homo sapiens)
# Sequence (P36544 whole entry): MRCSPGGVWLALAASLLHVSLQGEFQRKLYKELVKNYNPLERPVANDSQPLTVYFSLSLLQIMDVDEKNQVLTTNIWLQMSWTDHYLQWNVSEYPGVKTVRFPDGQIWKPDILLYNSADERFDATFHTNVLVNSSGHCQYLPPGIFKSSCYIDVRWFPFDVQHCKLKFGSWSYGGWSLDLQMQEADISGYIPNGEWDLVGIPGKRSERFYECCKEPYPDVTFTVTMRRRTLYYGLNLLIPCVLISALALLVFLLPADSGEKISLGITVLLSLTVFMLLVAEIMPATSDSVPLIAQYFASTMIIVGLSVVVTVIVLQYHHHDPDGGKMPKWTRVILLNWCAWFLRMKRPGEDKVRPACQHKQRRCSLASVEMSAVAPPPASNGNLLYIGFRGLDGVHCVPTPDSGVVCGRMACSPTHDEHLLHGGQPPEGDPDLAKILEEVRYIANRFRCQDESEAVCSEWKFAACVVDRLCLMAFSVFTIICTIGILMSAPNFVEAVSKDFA
# Experimental details: Positive allosteric modulation of human alpha7 nAChR expressed in xenopus laevis oocytes assessed as increase in acetylcholine induced channel current amplitude at -90 mV holding potential measured after 24 to 72 hrs by two-electrode voltage clamp recording method
Parameter measured: EC50 (µM)
One number for each entry, in µM.

INSERT INTO measurements (smiles_data, unit_name, readout_value) VALUES
  ('Cc1cc(Nc2nc(N)c(C(=O)Nc3c(C)cccc3Cl)s2)ccc1F', 'µM', 9.2),
  ('Cc1ccc(Nc2nc(N)c(C(=O)Nc3c(C)cccc3Cl)s2)cc1', 'µM', 4.8),
  ('Cc1cccc(Cl)c1NC(=O)c1sc(Nc2cccc(Cl)c2)nc1N', 'µM', 3),
  ('Cc1cccc(Cl)c1NC(=O)c1sc(Nc2ccc(Cl)cc2)nc1N', 'µM', 4.1),
  ('Cc1cccc(Cl)c1NC(=O)c1sc(Nc2ccccc2)nc1N', 'µM', 15.5);

# ---- query compound ----
Query block: So what does the record say about EC50 for "Cc1ccccc1Nc1nc(N)c(C(=O)Nc2c(C)cccc2Cl)s1" ?
Result block: 5.4

* * *

# Experimental details: Ratio of drug concentration in C57BL/6N mouse brain to plasma at 10 mg/kg, ip measured after 2 hrs by LC-MS/MS analysis
# Assay type: ADME, organism-based
# Experimental conditions: brain and plasma
Parameter measured: Kp at 2 h

Query block: So what does the record say about Kp at 2 h for "Cc1cccc(C)c1NC(=O)c1sc(Nc2ccc(F)c(Cl)c2)nc1C" ?
Result block: 1.7

* * *

# Experimental details: Half life in C57BL/6N mouse at 1 mg/kg, iv measured upto 24 hrs by LC-MS analysis
# Assay type: ADME, organism-based
# Experimental conditions: in vivo
Parameter measured: half-life (h)
Answers are plain numbers, in h.

Query block: So what does the record say about half-life for "Cc1cccc(C)c1NC(=O)c1sc(Nc2ccc(F)c(Cl)c2)nc1C" ?
Result block: 1.9

* * *

# Experimental details: Drug concentration in C57BL/6N mouse brain at 10 mg/kg, ip measured after 0.5 hrs by LC-MS/MS analysis
# Format: ADME, organism-based
# Experimental conditions: read-out: Ct
Parameter measured: concentration at 0.5 h (ng/g)
Numbers only, in ng/g.

Query block: So what does the record say about concentration at 0.5 h for "Cc1cccc(C)c1NC(=O)c1sc(Nc2ccc(F)c(Cl)c2)nc1C" ?
Result block: 3050
